Test system: LOX IMVI
methodSummary: NCI tumour cell line growth inhibition, 48 h
Active and inactive are the calls of the source. Cut-off read from the data, not from the text of the source: active = GI50 up to about 1.1 µM and inactive = higher.
The reply should be one of these categories: active, inactive

Some solved cases for reference:
CC(C)=CCC[C@@H](C)c1c2ncc[nH]c-2c(C)c(=O)c1O; inactive
O=c1oc2c(Br)c(O)c(Br)cc2c2ccccc12; inactive

### Prompt Check the results log: what was the call for CC(=O)C(C(=O)C(=O)Nc1cc(Cl)c(Cl)cc1Cl)c1csc(N)n1 (stereo not given) ?
### Response inactive

### Prompt Check the results log: what was the call for Cc1cc(NC(=O)NC(=O)c2ccccc2N(C)C)ccc1Oc1ncc(Br)cn1 ?
### Response active

### Prompt Check the results log: what was the call for COc1ccc([C@]23CCC4(OCC(C)(C)CO4)[C@H]4CON(O[C@H](O[C@@H]5CCCCC5C(C)(C)c5ccccc5)C2)[C@@H]43)cc1OC (stereo not given in full) ?
### Response inactive
